- study target: Flap endonuclease 1 (Homo sapiens) (UniProt P39748)
- Sequence (P39748 whole entry, looked up): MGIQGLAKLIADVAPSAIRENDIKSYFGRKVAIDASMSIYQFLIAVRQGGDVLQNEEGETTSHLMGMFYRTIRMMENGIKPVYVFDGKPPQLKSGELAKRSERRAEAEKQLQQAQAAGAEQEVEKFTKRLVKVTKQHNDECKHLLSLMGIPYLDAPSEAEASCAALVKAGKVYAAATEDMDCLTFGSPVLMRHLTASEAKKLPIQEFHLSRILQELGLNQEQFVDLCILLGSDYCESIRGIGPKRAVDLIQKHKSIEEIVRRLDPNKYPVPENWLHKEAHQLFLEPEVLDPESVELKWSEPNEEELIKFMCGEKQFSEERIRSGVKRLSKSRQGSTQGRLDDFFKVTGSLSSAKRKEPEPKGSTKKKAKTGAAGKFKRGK
- assay text: qHTS Assay for the Inhibitors of Human Flap endonuclease 1 (FEN1). Note: nearly all actives have a fitted effect of over 65% in size.
- conditions used: Recombinant FEN1 flap cleavage, fluorescence, 15 min; series mostly up to 114 µM
The campaign covered roughly 390,000 compounds. About 1,400 (0.36%) were called active. Another 2% or so got no clear call; they are omitted. Calls come from the whole dose curve; as a rule, active = well fitted inhibition curve with a large enough effect; inconclusive = small, poorly fitted or top-dose-only effect; inactive = no such curve, though single readings can be large or run the other way. What follows is part of a selection rich in actives, with near analogues and random picks from the rest.
Your response should consist of one outcome taken from active, inactive

>  <compound>
Cc1ccc(-c2nnc(Nc3ccc(C(=O)N(C)C)cc3)c3ccccc23)cc1S(N)(=O)=O

>  <class name>
inactive

$$$$
>  <compound>
Cc1ccc(C)c(Nc2nnc(-c3ccc(C)c(S(=O)(=O)N4CCCCC4)c3)c3ccccc23)c1

>  <class name>
active

$$$$
>  <compound>
CCC(C)N(c1ccc(/C=C/c2ccnc3ccccc23)cc1)C(C)CC (stereo not given)

>  <class name>
inactive

$$$$
>  <compound>
C=CCn1c(=S)[nH]c2scc(-c3ccco3)c2c1=O

>  <class name>
active

$$$$
>  <compound>
Cc1ccc(Nc2nnc(-c3ccc(C)c(S(=O)(=O)N4CCCCC4)c3)c3ccccc23)cc1

>  <class name>
inactive

$$$$
>  <compound>
COC(=O)c1ccc2c(c1)N(CC(=O)Nc1ccc(C)c(C)c1)C(=O)c1ccccc1S2

>  <class name>
inactive

$$$$
>  <compound>
OC[C@@H]1O[C@H](n2cnc3c(SCc4ccccc4)ncnc32)[C@H](O)[C@H]1O

>  <class name>
inactive

$$$$
>  <compound>
COc1ccc(Cl)cc1NC(=O)CCn1c(=O)c2cccn2c2ccccc21

>  <class name>
inactive

$$$$

Exam item: Short answer needed: outcome of this test for C=CCNC(=O)c1ccc2nc(-c3ccco3)c(-c3ccco3)nc2c1 ?
Marked response: inactive

Exam item: Short answer needed: outcome of this test for Cc1cc(C)cc(NC(=O)CSc2nc(=O)n(CCN3CCOCC3)c3c2CCC3)c1 ?
Marked response: inactive

Exam item: Short answer needed: outcome of this test for CCOc1nc(NCCN2CCOCC2)nc(Nc2ccc(C)cc2)n1 ?
Marked response: inactive
